- System: RAW-Dual (murine macrophage reporter line)
- EXPERIMENTAL_DETAILS: viability score (confluency relative to resting cells, overnight) (fraction); higher = more viable, active = viable (0.7 or more)
- APPLIED_CONDITIONS: modulator concentration 10 µM
Listed compounds paired with reported viability score
Answer as a number with no unit attached.

stdin: Supply reported viability score belonging to this compound: CC(CN1c2ccccc2Sc2ccccc21)N(C)C.Cl (stereo not given)
stdout: 0.389

stdin: Supply reported viability score belonging to this compound: Cc1nc[nH]c1CN1CCc2c(c3ccccc3n2C)C1=O.Cl
stdout: 1

stdin: Supply reported viability score belonging to this compound: Cc1ccc(O)c([C@H](CCN(C(C)C)C(C)C)c2ccccc2)c1.O=C(O)[C@H](O)[C@@H](O)C(=O)O
stdout: 0.979

---
stdin: Supply reported viability score belonging to this compound: NC(=O)C1CCCN1c1ncccc1C(F)(F)F (stereo not given)
stdout: 0.997

stdin: Supply reported viability score belonging to this compound: O=C(CCCc1ccccc1)NCC1(O)CCCC1
stdout: 1.01

stdin: Supply reported viability score belonging to this compound: CCCCOc1ccc(C(=O)Nc2cc(-c3nc4ccccc4o3)ccc2OC)cc1
stdout: 1

stdin: Supply reported viability score belonging to this compound: NCC1OC(OC2C(CO)OC(OC3C(O)C(N)CC(N)C3OC3OC(CN)C(O)C(O)C3N)C2O)C(N)C(O)C1O.O=S(=O)(O)O (stereo not given)
stdout: 1.02

stdin: Supply reported viability score belonging to this compound: CCCCCCc1cc2cc(-c3nc(-c4ccc(Oc5ccccc5)cc4)cs3)c(=O)oc2cc1O
stdout: 1.01

stdin: Supply reported viability score belonging to this compound: O=C(NC(Cc1cc(=O)[nH]c2ccccc12)C(=O)O)c1ccc(Cl)cc1 (stereo not given)
stdout: 0.992

stdin: Supply reported viability score belonging to this compound: Cc1cc(C)n(C2CC(=O)N(c3ccccc3)C2=O)n1 (stereo not given)
stdout: 1.02

stdin: Supply reported viability score belonging to this compound: O=C(CCCCCN1C(=O)c2cccc3cccc(c23)C1=O)NCCO
stdout: 1

stdin: Supply reported viability score belonging to this compound: O=c1cc(-c2ccc(O)c(O)c2)oc2cc(O)cc(O)c12 [Prestw-870]
stdout: 0.995

stdin: Supply reported viability score belonging to this compound: CCCCSc1nnc2c(n1)OC(c1cccc(F)c1)Nc1ccc(Br)cc1-2 (stereo not given)
stdout: 1

stdin: Supply reported viability score belonging to this compound: COC(CNS(=O)(=O)c1ccccc1Br)c1ccc(C)s1 (stereo not given)
stdout: 0.997

stdin: Supply reported viability score belonging to this compound: Cc1cc(-c2csc(NCc3ccccc3)n2)c(C)o1.Cl
stdout: 0.991

---

- Tested on: RAW-Dual (murine macrophage reporter line)
- EXPERIMENTAL_DETAILS: NF-kB reporter (SEAP) activity fold change vs agonist alone; higher = enhanced NF-kB activity
- APPLIED_CONDITIONS: modulator concentration 10 µM; agonist: LPS 0.1 ug/mL
Binary call on NF-kB reporter: TRUE from 1 upward, FALSE beneath that.

The following compounds have reported results that may help.
stdin: Quick check, NF-kB reporter >= 1? NC(=O)c1ncn([C@@H]2O[C@H](CO)[C@@H](O)[C@H]2O)c1N
stdout: TRUE

stdin: Quick check, NF-kB reporter >= 1? COC(CNS(=O)(=O)c1ccccc1Cl)c1cccc(F)c1 (stereo unspecified)
stdout: TRUE

stdin: Quick check, NF-kB reporter >= 1? COc1ccc(S(=O)(=O)N(CC(=O)Nc2ccccc2Br)c2ccc(C)cc2)cc1OC
stdout: FALSE

stdin: Quick check, NF-kB reporter >= 1? CNCCC=C1c2ccccc2CCc2ccccc21.Cl
stdout: TRUE

Could you now look at the following compound, please?
stdin: Quick check, NF-kB reporter >= 1? O=C(CCCN1CC=C(n2c(=O)[nH]c3ccccc32)CC1)c1ccc(F)cc1
stdout: FALSE

Source of measurements: the supplement of paper PMC10646978
